Answer each item with its documented self-cleavage.
B1: CPEB3 Ribozyme (parent)
chain: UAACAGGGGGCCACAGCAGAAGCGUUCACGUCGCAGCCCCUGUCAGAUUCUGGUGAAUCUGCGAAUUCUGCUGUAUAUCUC

variants of: B1; experiment: self-cleavage, relative activity (ratio to wild type); higher = more cleavage; in vitro, sequencing
Numbers only.

{"residueCodes": "UAACAGGGGGCCUCAGCAGAAGCGUUCACGUCGCAGCCCCUGUCAGAUUCUGGUGAAUCUGCGAAAUCUGCUGUAUAUCUC [A13U U66A]", "self-cleavage": 0.52}
{"residueCodes": "UAACAGGGGGCCACAGCAGAAGAGUUCACGUCGCAGCCCCCGUCAGAUUCUGGUGAAUCUGCGAAUUCUGCUGUAUAUCUC [C23A U41C]", "self-cleavage": 0.34}
{"residueCodes": "UAACAGGGGGCCACAGCAGAAGCGUUCACGUCGCAGCCCCUAUCAGAUUCUGGUGUAUCUGCGAAUUCUGCUGUAUAUCUC [G42A A56U]", "self-cleavage": 0.28}
{"residueCodes": "UAACAGGGGGCCACAGCAGAAGCGUUGACGUCGCAGCCCCUGUCAGUUUCUGGUGAAUCUGCGAAUUCUGCUGUAUAUCUC [C27G A47U]", "self-cleavage": 0.05}
{"residueCodes": "UAACAGGGGGCCACAGCAGAUGCGAUCACGUCGCAGCCCCUGUCAGAUUCUGGUGAAUCUGCGAAUUCUGCUGUAUAUCUC [A21U U25A]", "self-cleavage": 0.22}

Record self-cleavage per entry; entries follow.
1. UACCAGGGGGCCACAGCAGAAGCGUUCACGUCGCAGCCCCUGUCAGAUUCAGGUGAAUCUGCGAAUUCUGCUGUAUAUCUC [A3C U51A]
2. UAACAGGGGGCCACAGCAGAAGCGUUCACGUCGCAGCCCCAGUCAGAUUCUGGUGAAUCUGCGAAUUCUGCUGUAUAUUUC [U41A C79U]
3. UAAAAGGGGGCCACAGCAGAAGCGUUCACGUCGCAGCCCCUGUCAGAUUCUGGUGAAUCUGCGAACUCUGCUGUAUAUCUC [C4A U66C]
4. UAACAGGGGGCCACAGCAGGAGCGUUCACGUCGCAGCCCCUGUCAGAUUCUGGCGAAUCUGCGAAUUCUGCUGUAUAUCUC [A20G U54C]
5. UAACAGGGGGCCACAGCAGAAGCGUUCACGUCGCAGCCCCUGUCAGAUUCUGUUGAAUCUGCGAAGUCUGCUGUAUAUCUC [G53U U66G]

1.19
0.41
0.24
0.88
0.66
